Origin of values: paper PMC6271978

# measured target: PTP1B (GST-PTP1B) (Homo sapiens, UniProt P18031)
# Sequence (P18031 1-435): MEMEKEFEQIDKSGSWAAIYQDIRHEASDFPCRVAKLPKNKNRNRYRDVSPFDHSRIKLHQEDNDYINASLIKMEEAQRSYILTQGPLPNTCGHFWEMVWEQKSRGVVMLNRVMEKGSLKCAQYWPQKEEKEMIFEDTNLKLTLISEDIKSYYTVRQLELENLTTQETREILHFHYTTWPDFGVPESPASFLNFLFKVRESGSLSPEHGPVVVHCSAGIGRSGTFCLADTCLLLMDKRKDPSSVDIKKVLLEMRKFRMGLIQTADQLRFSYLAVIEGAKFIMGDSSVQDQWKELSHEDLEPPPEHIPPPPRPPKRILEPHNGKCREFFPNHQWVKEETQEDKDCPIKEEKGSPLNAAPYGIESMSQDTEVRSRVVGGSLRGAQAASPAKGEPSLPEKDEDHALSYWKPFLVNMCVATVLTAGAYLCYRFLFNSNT
# method notes: PTP1B inhibition, colorimetric pNPP assay
# Format: biochemical
# condition parameters: PTP1B, pNPP substrate, compound at 20 μg/mL
The compounds listed here are annotated with their inhibition at 20 µg/mL.
// return numeric value only (unit: %, not printed)

For orientation, consider the following solved cases.
>  <compound>
CCOC(=O)CCCCOc1ccc(C2Nc3cccc4cccc(c34)N2)cc1 [Compound 22]

>  <inhibition at 20 µg/mL [%]>
2.04

$$$$
>  <compound>
CCOC(=O)CCCOc1ccc(C2Nc3cccc4cccc(c34)N2)cc1 [Compound 21]

>  <inhibition at 20 µg/mL [%]>
7.45

$$$$
>  <compound>
CCOC(=O)CCCC(=O)Nc1ccc(C2Nc3cccc4cccc(c34)N2)cc1 [Compound 29]

>  <inhibition at 20 µg/mL [%]>
2.92

$$$$
>  <compound>
O=C(O)CNC(=O)c1ccc(C2Nc3cccc4cccc(c34)N2)nc1 [Compound 46]

>  <inhibition at 20 µg/mL [%]>
99.5

$$$$
>  <compound>
Nc1ccc(C2Nc3cccc4cccc(c34)N2)cc1 [Compound 8]

>  <inhibition at 20 µg/mL [%]>
23.8

$$$$
>  <compound>
COC(=O)CNC(=O)c1ccc(C2Nc3cccc4cccc(c34)N2)cc1 [Compound 11]

>  <inhibition at 20 µg/mL [%]>
4.81

$$$$
>  <compound>
O=C(O)C1CCCN1C(=O)c1ccc(C2Nc3cccc4cccc(c34)N2)cc1 (stereo not shown) [Compound 15]

>  <inhibition at 20 µg/mL [%]>
84.2

$$$$
>  <compound>
CCOC(=O)CCCNC(=O)c1ccc(C2Nc3cccc4cccc(c34)N2)cc1 [Compound 12]

>  <inhibition at 20 µg/mL [%]>
6.83

$$$$

What is its inhibition at 20 µg/mL for PTP1B (GST-PTP1B) (Homo sapiens, UniProt P18031)? Entry: CCOC(=O)CCCCCNC(=O)c1ccc(C2Nc3cccc4cccc(c34)N2)cc1 [Compound 14] 35.6

Hi! What's the reported inhibition at 20 µg/mL for O=C(O)CCCNC(=O)c1ccc(C2Nc3cccc4cccc(c34)N2)cc1 [Compound 17] on PTP1B (GST-PTP1B) (Homo sapiens, UniProt P18031)? 73.1

Requested read-out inhibition at 20 µg/mL, target or system PTP1B (GST-PTP1B) (Homo sapiens, UniProt P18031), entry Brc1cccc(C2Nc3cccc4cccc(c34)N2)c1 [Compound 3] 42.5
